Data origin: PubChem BioAssay (NCI)

Experiment: NCI Yeast Anticancer Drug Screen. Data for the rad18 strain (AID 177)
Settings: S. cerevisiae rad18 mutant growth inhibition; at 100.0 µM; active compounds read high
Description: Growth inhibition of yeast strains with defined genetic alterations is measured as a screen for potential anti-cancer activity. Selected strains with alterations in DNA damage repair or cell cycle control were exposed to compounds and growth inhibition was measured relative to vehicle treated controls. The strain used in this assay is rad18
This is part of a sample that, as a whole, favours compounds with a hit. Of some 79,000 tested, about 15% had one in any assay. The source made the active and inactive calls. No stated cut-off is given here; in the data, active means growth inhibition above about 70%; inactive means the rest.
observation_type: growth inhibition

Guide cases for growth inhibition, answers given:
molecule	growth inhibition
CCCCOC(=O)Nc1ccc(C)c(NC(=O)OCCCC)c1	50% (inactive)
O=[N+]([O-])c1cc(S(=O)(=O)Nc2ccccc2)ccc1Nc1ccccc1	79% (active)
COc1nc2c(c(=O)n1C)N=C(c1ccccc1)[C@H](C(CC(=O)c1ccccc1)c1ccccc1)C(c1ccccc1)N2 (stereo not given in full)	67% (inactive)
Cc1sc2ccc3ccccc3c2[n+]1C	87% (active)

// next item, growth inhibition requested
Query string: Could you please provide reported growth inhibition for `O=[N+]([O-])c1cc(F)c(F)cc1Sc1cc(F)c(F)cc1[N+](=O)[O-]` ? Thanks!
Result string: 97% (active)
